target: T1, human FcRn/b2M (human, UniProt P61769 21-119, biotinylated); assay: SPR pH 6.0
T1 construct: bought recombinant biotinylated protein (ACRO FCM-H82W4 or Immunitrack ITF01); also called hFcRn; hFcRn/hb2M
Property Name: koff (s⁻¹)

[a] T026301097 (VHH, name in Kabat numbering, tagless) VHH: EVQLVESGGGVVQPGGSLRLSCAASTFTFSEYAMYWVRQAPGKGLEWVSAISQGGGSTDYADSVKGRFTISRDNSKNTLYLQMNSLRPEDTALYYCAADTLYTSLTWYSYWGQGTLVTVSS
[b] T026301110 (VHH, name in Kabat numbering, tagless) VHH: EVQLVESGGGVVQPGGSLRLSCAASGFTFSEYAMYWVRQAPGKGLEWVSAISQGGGSTDYADSVKGRFTISRDNSKNTLYLQMNSLRPEDTALYYCAADTLYTDLTWYSYWGQGTLVTVSS
[c] T026301113 (VHH, name in Kabat numbering, tagless) VHH: EVQLVESGGGVVQPGGSLRLSCAASGFTFSEYAMYWVRQAPGKGLEWVSAISQGGGSTDYADSVKGRFTISRDNSKNTLYLQMNSLRPEDTALYYCAADTLYTSLTKYSYWGQGTLVTVSS
[d] T026301071 (VHH, name in Kabat numbering, tagless) VHH: EVQLVESGGGVVQPGGSLRLSCAASTFTFSEYAMYWVRQAPGKGLEWVSAISSGGGSTDYADSVKGRFTISRDNSKNTLYLQMNSLRPEDTALYYCAADTLYTDLTSYSYWGQGTLVTVSS
Ask: Order by koff, smallest first, the items presented above. I would appreciate it if you listed the labels in the requested order.
Result: a, b, c, d

[P] T026301079 (VHH, name in Kabat numbering, tagless) VHH: EVQLVESGGGVVQPGGSLRLSCAASGFTFSSYAMYWVRQAPGKGLEWVSAISQGGGSTDYADSVKGRFTISRDNSKNTLYLQMNSLRPEDTALYYCAADTLYTSLTSYSYWGQGTLVTVSS
[Q] T026301100 (VHH, name in Kabat numbering, tagless) VHH: EVQLVESGGGVVQPGGSLRLSCAASGFTFSSYDMYWVRQAPGKGLEWVSAISQGGGSTDYADSVKGRFTISRDNSKNTLYLQMNSLRPEDTALYYCAADTLYTDLTWYSYWGQGTLVTVSS
Ask: Field: entry with larger koff (options P / Q ). # respond with the chosen item's label
Result: P
(P: 0.0065 s⁻¹, Q: 0.0039 s⁻¹)

[A] T026301125 (VHH, name in Kabat numbering, tagless) VHH: EVQLVESGGGVVQPGGSLRLSCAASGFTFSEYAMYWVRQAPGKGLEWVSAISSGGGSTDYADSVKGRFTISRDNSKNTLYLQMNSLRPEDTALYYCAADTLYTSLTKYSYWGQGTLVTVSS
[B] T026301060 (VHH, name in Kabat numbering, tagless) VHH: EVQLVESGGGVVQPGGSLRLSCAASGFTFSEYAMYWVRQAPGKGLEWVSAISSGGGSTDYADSVKGRFTISRDNSKNTLYLQMNSLRPEDTALYYCAADTLYTDLTSYSYWGQGTLVTVSS
Ask: Pick one: A or B . Which one has the lower reported koff? # respond with the chosen item's label
Result: A
